- test.protocol: chemical genetic growth profiling, strain panel (AID 1159580);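 further: tested at 20 µM; growth read once vehicle control cultures reached saturation at 30 °C; 1 = growth at the plate median or of vehicle wells; lower values mean less growth of the strain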
- experimental.conditions: S. cerevisiae deletion strains, growth OD, locus YLR268W, strain sec22
Out of some 5,500 compounds screened, about 2,000 (36%) were called active. Inconclusive results (about 18%) are left out. No stated cut-off is given here; in the data, active means normalized growth mostly below about 0.91 (no sharp cut-off); inconclusive means no clear call, values can overlap the other calls; inactive means mostly above about 0.92. The list shows a part of the results.
Hi there, use one of these labels in your reply, thanks! T (active), F (inactive)

## Task What is the recorded call for this compound in the test? CC(=O)[C@H]1CCC2C3CC=C4C[C@@H](O)CC[C@]4(C)C3CC[C@@]21C (stereo partly drawn)
## Result F

## Task What is the recorded call for this compound in the test? C=CCCCCCCCCCCCC(O)CC(O)CO (stereo not drawn) (tested in a mixture with another compound)
## Result T

## Task What is the recorded call for this compound in the test? CC(N)Cc1ccc(O)cc1 (stereo not drawn)
## Result F

----------
# normalized growth values compiled below
- test.protocol: chemical genetic growth profiling, strain panel (AID 1159580)
- experimental.conditions: S. cerevisiae deletion strains, growth OD, locus YHR030C, strain SLT2, active compounds read low
The campaign covered roughly 5,500 compounds. About 2,000 (36%) were called active. Not shown: some 18% with an inconclusive outcome. This is one part of the list. Where a SMILES comes first, the peptide text is derived from it. Bridges are numbered along the chain shown (N, C = ends). [ ]: non-standard residue; d: D form. The star is where a group is joined. Heptanoyl(6-Me) = CC(C)CCCCC(=O)*; Dab = NCC[CH](N)C(=O)O
Just the number, please, no unit attached.

Here are 2 compounds together with their reported answers.
{"compound": "CCC(C)C1NC(=O)C(CCN)NC(=O)C(NC(=O)C(CCN)NC(=O)C(NC(=O)C(CCN)NC(=O)CCCCC(C)C)C(C)O)CCNC(=O)C(C(C)O)NC(=O)C(CCN)NC(=O)C(CCN)NC(=O)C(C(C)CC)NC1=O (stereo not drawn) ({Heptanoyl(6-Me)}-[Dab]T[Dab][Dab][Dab]II[Dab][Dab]T; lactam 4-C; configuration not given here)", "normalized growth": 0.976}
{"compound": "Cc1ncc(C[n+]2csc(CCO)c2C)c(=O)[nH]1", "normalized growth": 1.04}

# ---- query compound ----
## Task Item `O=C1CCCc2c1nc(-c1ccccc1)n2O` : provide normalized growth
## Result 1.05

----------
# normalized growth values compiled below
- test.protocol: chemical genetic growth profiling, strain panel (AID 1159580)
- experimental.conditions: S. cerevisiae deletion strains, growth OD, locus YDR052C, strain DBF4, active compounds read low
Out of some 5,500 compounds screened, about 2,000 (36%) were called active. Not shown: some 18% with an inconclusive outcome. The list shows a part of the results.
Just the number, please, no unit attached.

Here are 4 compounds together with their reported answers.
{"compound": "N/C(CSc1ccc(Cl)cc1)=N/OC(=O)c1ccc(C(F)(F)F)cc1", "normalized growth": 0.912}
{"compound": "C#Cc1cccc(N=Cc2cc(Cl)cc(Br)c2O)c1", "normalized growth": 0.451}
{"compound": "Cc1cc(C(=O)N(c2ccccc2)C(C)C2CC2)c(Cl)cc1Cl (stereo not given)", "normalized growth": 0.985}
{"compound": "N/C(CSc1ncccc1C(F)(F)F)=N/OC(=O)Nc1cccc(Cl)c1", "normalized growth": 1}

# ---- query compound ----
## Task Item `N=c1ccc2nc3c(Cl)c4c(c(Cl)c3oc-2c1S(=O)(=O)O)Nc1ccc(N)c(S(=O)(=O)O)c1O4` : provide normalized growth
## Result 1.01

----------
- test.protocol: chemical genetic growth profiling, strain panel (AID 1159580);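 further: tested at 20 µM; growth read once vehicle control cultures reached saturation at 30 °C; 1 = growth at the plate median or of vehicle wells; lower values mean less growth of the strain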
- experimental.conditions: S. cerevisiae deletion strains, growth OD, locus YNL322C, strain KRE1 (second series)
The whole screen tested about 5,500 compounds, of which about 2,000 (36%) were called active. Another 18% or so got no clear call; they are omitted. Cut-off read from the data, not from the text of the source: active = normalized growth mostly below about 0.91 (no sharp cut-off); inconclusive = no clear call, values can overlap the other calls; inactive = mostly above about 0.92. The list shows a part of the results.
Hi there, use one of these labels in your reply, thanks! active, inactive

Check out these entries, answers already filled in.
{"compound": "CC(C)(Oc1ccc(Cl)cc1)C(=O)O", "assigned.category": "inactive"}
{"compound": "COc1ccc(-c2cc(=O)c3ccccc3o2)cc1", "assigned.category": "active"}
{"compound": "CNCCC=C1c2ccccc2CCc2ccccc21", "assigned.category": "inactive"}
{"compound": "COc1cc([C@@H]2c3cc4c(cc3[C@H](O)[C@H]3COC(=O)[C@@H]23)OCO4)cc(OC)c1OC", "assigned.category": "inactive"}
{"compound": "CC1=CCc2c(cc3oc(C)cc(=O)c3c2O)OC1", "assigned.category": "inactive"}

## Task What is the recorded call for this compound in the test? Cn1nnnc1SCC1=C(C(=O)O)N2C(=O)C(NC(=O)C(O)c3ccccc3)C2SC1 (stereo unspecified)
## Result inactive

## Task What is the recorded call for this compound in the test? `O=c1c2ccccc2oc2ccccc12`
## Result inactive

## Task What is the recorded call for this compound in the test? CC(=O)O[C@@H]1CC2C(C)(C)CCC(=O)[C@]2(C)C2CC[C@@]3(C)[C@H](c4ccoc4)OC(=O)C4OC43[C@@]21C (stereo partly specified)
## Result inactive

## Task What is the recorded call for this compound in the test? `O=C(O)c1cn(-c2ccc(F)cc2)c2cc(N3CCNCC3)c(F)cc2c1=O`
## Result inactive

## Task What is the recorded call for this compound in the test? CC(=O)[C@H]1CCC2C3CC=C4C[C@@H](OC(=O)CCC(=O)O)CC[C@]4(C)C3CC[C@@]21C (stereo partly specified)
## Result inactive

## Task What is the recorded call for this compound in the test? `C[N+]1(CCCCC[N+]2(C)CCCC2)CCCC1`
## Result inactive

## Task What is the recorded call for this compound in the test? `ClC(Cl)=C(c1ccc(Cl)cc1)c1ccc(Cl)cc1`
## Result inactive

## Task What is the recorded call for this compound in the test? OC1C(O)C(O)C(O)C(O)C1O (stereo unspecified)
## Result inactive

## Task What is the recorded call for this compound in the test? `CCCCCCc1ccc(O)cc1O`
## Result inactive

----------
- test.protocol: chemical genetic growth profiling, strain panel (AID 1159580);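 further: tested at 20 µM; growth read once vehicle control cultures reached saturation at 30 °C; 1 = growth at the plate median or of vehicle wells; lower values mean less growth of the strain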
- experimental.conditions: S. cerevisiae deletion strains, growth OD, locus YLL026W
The campaign covered roughly 5,500 compounds. About 2,000 (36%) were called active. Inconclusive results (about 18%) are left out. Rule as the data show it: active = normalized growth mostly below about 0.91 (no sharp cut-off); inconclusive = no clear call, values can overlap the other calls; inactive = mostly above about 0.92. The list shows a part of the results.
Hi there, use one of these labels in your reply, thanks! active, inactive

{"compound": "COc1cc2c3cc1Oc1cc(ccc1O)C[C@@H]1c4c(cc(OC)c(O)c4Oc4ccc(cc4)C[C@@H]3N(C)CC2)CC[N+]1(C)C", "assigned.category": "inactive"}
{"compound": "C[n+]1cc2c3c(ccc2c2ccc4cc5c(cc4c21)OCO5)OCO3", "assigned.category": "active"}
{"compound": "COc1c2c(cc3c1OCO3)CC[N+](C)=C2", "assigned.category": "inactive"}

As a next step, examine the compound that follows.
## Task What is the recorded call for this compound in the test? `Nc1nnc(-c2cccc(Cl)c2Cl)c(N)n1`
## Result inactive

----------
- test.protocol: chemical genetic growth profiling, strain panel (AID 1159580);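 further: tested at 20 µM; growth read once vehicle control cultures reached saturation at 30 °C; 1 = growth at the plate median or of vehicle wells; lower values mean less growth of the strain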
- experimental.conditions: S. cerevisiae deletion strains, growth OD, locus YNL322C, strain KRE1 (second series)
About 2,000 (36%) of roughly 5,500 compounds were called active. Roughly 18% stayed inconclusive and do not appear here. Cut-off read from the data, not from the text of the source: active = normalized growth mostly below about 0.91 (no sharp cut-off); inconclusive = no clear call, values can overlap the other calls; inactive = mostly above about 0.92. The list shows a part of the results.
Hi there, use one of these labels in your reply, thanks! active, inactive

Check out these entries, answers already filled in.
{"compound": "CN1CCOC(c2ccccc2)c2ccccc2C1 (stereo not given)", "assigned.category": "inactive"}
{"compound": "CC(C)=CCc1c2c(c(O)c3c(=O)c(O)c(-c4ccccc4)oc13)C=CC(C)(C)O2", "assigned.category": "inactive"}
{"compound": "NC(=O)CC[C@@H](N)C(=O)O", "assigned.category": "inactive"}
{"compound": "C[n+]1cc2c3c(ccc2c2ccc4cc5c(cc4c21)OCO5)OCO3", "assigned.category": "inactive"}
{"compound": "COc1ccc(-c2cc(=O)c3c(O)c(OC)c(OC)c(OC)c3o2)cc1", "assigned.category": "inactive"}
{"compound": "CC(=O)N(O)CCCCCNC(=O)CCC(=O)N(O)CCCCCNC(=O)CCC(=O)N(O)CCCCCN", "assigned.category": "inactive"}
{"compound": "COc1ccc(-c2cc(=O)c3cc(OC)ccc3o2)cc1", "assigned.category": "inactive"}
{"compound": "O=c1c2ccccc2[se]n1-c1ccccc1", "assigned.category": "active"}
{"compound": "CC1(C)O[C@@H]2CC3C4C[C@H](F)C5=CC(=O)C=C[C@]5(C)[C@@]4(F)[C@@H](O)C[C@]3(C)[C@]2(C(=O)CO)O1 (stereo not given in full)", "assigned.category": "inactive"}

## Task What is the recorded call for this compound in the test? CC1(C)O[C@@H]2CC3C4C[C@H](F)C5=CC(=O)C=CC5(C)C4C(O)CC3(C)[C@]2(C(=O)CO)O1 (stereo not given in full)
## Result inactive

The measured values listed here are drawn from PubChem BioAssay AID1159580.
